// provenance: ChEMBL document CHEMBL1136122

test: In vitro concentration required to inhibit the HIV-1 LA1 replication on PBMCs cell (peripheral blood mononuclear cells); format: functional, cell-based; conditions: Homo sapiens, PBMC
pEC50: −log10 of the molar value.
So basically: pEC50 at 6 or higher? That is fulfilled. Lower than 6? That is not fulfilled.

| compound | assigned category |
| --- | --- |
| Nc1ccn([C@@H]2CS[C@H](CO)O2)c(=O)n1 | fulfilled |
| Nc1ccn(C2CSC(COC(=O)NCCCO)O2)c(=O)n1 (configuration not stated) | not fulfilled |
| Nc1ccn(C2CSC(COC(=O)NCCCCO)O2)c(=O)n1 (configuration not stated) | not fulfilled |
| NCCCCOC(=O)OCC1OC(n2ccc(N)nc2=O)CS1 (configuration not stated) | fulfilled |
| Nc1ccn(C2CSC(COC(=O)NCP(=O)(O)O)O2)c(=O)n1 (configuration not stated) | not fulfilled |
| NCCCOC(=O)OCC1OC(n2ccc(N)nc2=O)CS1 (configuration not stated) | fulfilled |
| CCCCNC(=O)OCC1OC(n2ccc(N)nc2=O)CS1 (configuration not stated) | not fulfilled |
| CCCNC(=O)OCC1OC(n2ccc(N)nc2=O)CS1 (configuration not stated) | not fulfilled |
| CCOP(=O)(CNC(=O)OCC1OC(n2ccc(N)nc2=O)CS1)OCC (configuration not stated) | not fulfilled |
| NCCCCNC(=O)OCC1OC(n2ccc(N)nc2=O)CS1 (configuration not stated) | not fulfilled |
| Nc1ccn(C2CSC(COC(=O)NCCCCCCO)O2)c(=O)n1 (configuration not stated) | not fulfilled |
